B1: CAMK2D (parent)
chain: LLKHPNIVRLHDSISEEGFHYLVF

- Variants of: B1
- MEASUREMENT NOTES: protein stability index of a GFP-peptide fusion (GPS, HEK-293T) (PSI 1-6); higher = more stable;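 note: lentivirally expressed fusions sorted by FACS into six bins by GFP to DsRed ratio, PSI derived from sequencing read proportions per bin multiplied by bin number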
- EXPERIMENTAL CONDITIONS: c terminus: a fixed tail appended
RESULT TYPE: protein stability index
# print the numeric value only

F19R : 2.02

Fill in protein stability index for record F19D 1.73

Identify protein stability index associated with the variant E16K 1.21

Tell me measured protein stability index for H4M please. 3.37

Return the recorded protein stability index value; entry: D12Y 2.35

Specify protein stability index for F24G and stop. 2.47

Give me measured protein stability index, please, for this variant: S15P 2.27

Specify measured protein stability index for H4V . 1.58

Fill in protein stability index for record F24T 1.15

Could you please provide reported protein stability index for K3A ? Thanks! 2.38

Return protein stability index (reported value) for this variant: I7F 2.39

Note down protein stability index recorded for P5M 1.72

Fill in protein stability index for record L10T 1.43

Given the variant L10P , write its reported protein stability index. 2.49

Supply recorded protein stability index for N6K here. 2.36

For the variant D12V , give its reported protein stability index. 2.63

Please look at this variant and report its protein stability index: H4P 1.67

Give a short answer stating reported protein stability index for I14Y . 1.89

Measured values drawn from the supplement of paper PMC10567573 for this set.
